The entries below are paired with their reported IC50.
- Target Under Test: EF2K (Homo sapiens)
- Construct: host or cells: LN-229 cell lysate
- Sequence (O00418 whole entry): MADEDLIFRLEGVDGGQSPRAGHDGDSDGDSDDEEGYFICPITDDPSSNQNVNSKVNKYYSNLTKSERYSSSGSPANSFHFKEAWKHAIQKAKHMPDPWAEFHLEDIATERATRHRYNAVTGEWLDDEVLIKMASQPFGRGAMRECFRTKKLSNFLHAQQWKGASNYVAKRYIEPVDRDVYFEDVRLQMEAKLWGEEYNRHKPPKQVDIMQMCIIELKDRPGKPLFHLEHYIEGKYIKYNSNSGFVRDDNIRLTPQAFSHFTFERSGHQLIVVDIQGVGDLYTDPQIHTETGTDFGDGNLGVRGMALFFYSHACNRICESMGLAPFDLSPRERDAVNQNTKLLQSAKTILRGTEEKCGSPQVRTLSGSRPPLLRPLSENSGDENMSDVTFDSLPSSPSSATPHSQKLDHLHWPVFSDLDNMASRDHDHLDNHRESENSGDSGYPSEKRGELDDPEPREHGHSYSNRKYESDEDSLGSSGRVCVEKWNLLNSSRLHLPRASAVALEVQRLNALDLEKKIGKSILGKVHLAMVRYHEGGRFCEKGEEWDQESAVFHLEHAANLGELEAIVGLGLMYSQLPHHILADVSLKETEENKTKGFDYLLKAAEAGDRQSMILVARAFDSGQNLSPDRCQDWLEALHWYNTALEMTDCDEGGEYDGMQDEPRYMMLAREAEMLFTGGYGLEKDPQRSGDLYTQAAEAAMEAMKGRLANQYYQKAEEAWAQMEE
- Protocol Description: EF2K cell-based assay (P-EF2 AlphaLISA, 2-deoxyglucose stimulated MCF10A cells)
- Run Parameters: 2.5 mM 2-deoxyglucose stimulated, P-EF2 Thr56, pIC50 = -log IC50 (M), read-out: eEF2K_C_PThr56 pIC50 (converted)

{"Molecule": "CN1CCCNc2ccc(cn2)-c2ccnc(n2)Nc2cccc(c2)CN2CCN(CC1=O)C(=O)C2 [Compound 127]", "IC50": "> 3.02e-05 M"}
{"Molecule": "O=C1CN2CCN(CC2)Cc2cc(Cl)cc(c2)Nc2nccc(n2)-c2ccc(nc2)NCCCN1 [Compound 9]", "IC50": "> 3.02e-05 M"}
{"Molecule": "CN1CCCN(C)c2ccc(cn2)-c2ccnc(n2)Nc2cncc(c2)CN2CCN(CC2)CC1=O [Compound 33]", "IC50": "2.14e-05 M"}

Now look at this one.
The value of IC50 measured for the molecule CN1CCCN(C)c2ccc(cn2)-c2ccnc(n2)Nc2cccc(c2)S(=O)(=O)N2CCN(CC2)CC1=O [Compound 27] turned out to be > 3.02e-05 M
